Clearance (%) beta phase by entry:
# protocol-description: Plasma clearance in mice of 125I-labeled protein
# assay-context: fraction of label cleared through beta phase
Where no end group is shown, it is not given here.
measured-quantity: Clearance (%) beta phase

substance	measured-quantity	observed-measurement
DX-1000: a human plasmin inhibitor, a Kunitz domain with three available lysines (SEQ ID NO:25) (EAMHSFCAFKAETGPCRARFDRWFFNIFTRQCEEFIYGGCEGNQNRFESLEECKKMCTRD; Synthetically generated peptide)	Clearance (%) beta phase	13%
DX-890: 56-amino-acid Kunitz domain (SEQ ID NO:23) derived from ITI-D2; inhibitor of human neutrophil elastase (EACNLPIVRGPCIAFFPRWAFDAVKGKCVLFPYGGCQGNGNKFYSEKECREYCGVP; Synthetically generated peptide)	Clearance (%) beta phase	21%
4 × PEG5-DX-1000: DX-1000 with four attached 5 kDa PEG moieties (4×5 kDa PEG/peptide) (MHSFCAFKAETGPCRARFDRWFFNIFTRQCEEFIYGGCEGNQNRFESLEECKKMCTRD; not fully specified; cysteine pairing not given here; also: four attached 5 kDa PEG moieties (4×5 kDa PEG/peptide))	Clearance (%) beta phase	62%
5 × PEG5-DX-890: modified DX-890 with five attached 5 kDa PEG moieties (mPEG-SPA) (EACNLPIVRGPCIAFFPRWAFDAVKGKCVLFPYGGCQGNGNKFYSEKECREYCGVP; not fully specified; cysteine pairing not given here; also: five attached 5 kDa PEG moieties (mPEG-SPA))	Clearance (%) beta phase	67%

* * *

# protocol-description: Plasma clearance in rabbit of 125I-labeled protein
# assay-context: fraction cleared through beta phase
Where no end group is shown, it is not given here.

substance	Clearance (%) beta phase
5 × PEG5-DX-890: modified DX-890 with five attached 5 kDa PEG moieties (mPEG-SPA) (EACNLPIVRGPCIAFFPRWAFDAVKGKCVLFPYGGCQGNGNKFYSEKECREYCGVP; not fully specified; cysteine pairing not given here; also: five attached 5 kDa PEG moieties (mPEG-SPA))	34
DX-890: 56-amino-acid Kunitz domain (SEQ ID NO:23) derived from ITI-D2; inhibitor of human neutrophil elastase (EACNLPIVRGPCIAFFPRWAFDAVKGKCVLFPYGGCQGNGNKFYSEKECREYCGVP; Synthetically generated peptide)	17
4 × PEG5-DX-1000: DX-1000 with four attached 5 kDa PEG moieties (4×5 kDa PEG/peptide) (MHSFCAFKAETGPCRARFDRWFFNIFTRQCEEFIYGGCEGNQNRFESLEECKKMCTRD; not fully specified; cysteine pairing not given here; also: four attached 5 kDa PEG moieties (4×5 kDa PEG/peptide))	32
DX-1000: a human plasmin inhibitor, a Kunitz domain with three available lysines (SEQ ID NO:25) (EAMHSFCAFKAETGPCRARFDRWFFNIFTRQCEEFIYGGCEGNQNRFESLEECKKMCTRD; Synthetically generated peptide)	15

* * *

Clearance (%) alpha phase by entry:
# protocol-description: Plasma clearance in rabbit of 125I-labeled protein
# assay-context: fraction cleared through alpha phase
Where no end group is shown, it is not given here.

substance	Clearance (%) alpha phase
5 × PEG5-DX-890: modified DX-890 with five attached 5 kDa PEG moieties (mPEG-SPA) (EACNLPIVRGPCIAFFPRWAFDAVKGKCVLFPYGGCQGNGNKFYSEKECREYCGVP; not fully specified; cysteine pairing not given here; also: five attached 5 kDa PEG moieties (mPEG-SPA))	28%
4 × PEG5-DX-1000: DX-1000 with four attached 5 kDa PEG moieties (4×5 kDa PEG/peptide) (MHSFCAFKAETGPCRARFDRWFFNIFTRQCEEFIYGGCEGNQNRFESLEECKKMCTRD; not fully specified; cysteine pairing not given here; also: four attached 5 kDa PEG moieties (4×5 kDa PEG/peptide))	34%
DX-1000: a human plasmin inhibitor, a Kunitz domain with three available lysines (SEQ ID NO:25) (EAMHSFCAFKAETGPCRARFDRWFFNIFTRQCEEFIYGGCEGNQNRFESLEECKKMCTRD; Synthetically generated peptide)	85%
DX-890: 56-amino-acid Kunitz domain (SEQ ID NO:23) derived from ITI-D2; inhibitor of human neutrophil elastase (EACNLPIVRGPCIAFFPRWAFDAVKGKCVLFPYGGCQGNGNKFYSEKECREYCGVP; Synthetically generated peptide)	83%

* * *

Clearance (%) alpha phase by entry:
# protocol-description: Plasma clearance in mice of 125I-labeled protein
# assay-context: fraction of label cleared through alpha phase
Where no end group is shown, it is not given here.

substance	unit-abbreviation	Clearance (%) alpha phase
DX-890: 56-amino-acid Kunitz domain (SEQ ID NO:23) derived from ITI-D2; inhibitor of human neutrophil elastase (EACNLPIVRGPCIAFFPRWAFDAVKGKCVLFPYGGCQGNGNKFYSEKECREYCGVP; Synthetically generated peptide)	%	79
DX-1000: a human plasmin inhibitor, a Kunitz domain with three available lysines (SEQ ID NO:25) (EAMHSFCAFKAETGPCRARFDRWFFNIFTRQCEEFIYGGCEGNQNRFESLEECKKMCTRD; Synthetically generated peptide)	%	87
4 × PEG5-DX-1000: DX-1000 with four attached 5 kDa PEG moieties (4×5 kDa PEG/peptide) (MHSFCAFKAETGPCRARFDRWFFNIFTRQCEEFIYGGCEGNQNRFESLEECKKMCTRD; not fully specified; cysteine pairing not given here; also: four attached 5 kDa PEG moieties (4×5 kDa PEG/peptide))	%	38
5 × PEG5-DX-890: modified DX-890 with five attached 5 kDa PEG moieties (mPEG-SPA) (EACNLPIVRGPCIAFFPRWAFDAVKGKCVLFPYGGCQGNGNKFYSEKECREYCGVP; not fully specified; cysteine pairing not given here; also: five attached 5 kDa PEG moieties (mPEG-SPA))	%	33
